# Target of assay: JAK1 (Homo sapiens, UniProt P23458)
# Construct: GST; purchased Life Technologies
# Sequence (P23458 whole entry): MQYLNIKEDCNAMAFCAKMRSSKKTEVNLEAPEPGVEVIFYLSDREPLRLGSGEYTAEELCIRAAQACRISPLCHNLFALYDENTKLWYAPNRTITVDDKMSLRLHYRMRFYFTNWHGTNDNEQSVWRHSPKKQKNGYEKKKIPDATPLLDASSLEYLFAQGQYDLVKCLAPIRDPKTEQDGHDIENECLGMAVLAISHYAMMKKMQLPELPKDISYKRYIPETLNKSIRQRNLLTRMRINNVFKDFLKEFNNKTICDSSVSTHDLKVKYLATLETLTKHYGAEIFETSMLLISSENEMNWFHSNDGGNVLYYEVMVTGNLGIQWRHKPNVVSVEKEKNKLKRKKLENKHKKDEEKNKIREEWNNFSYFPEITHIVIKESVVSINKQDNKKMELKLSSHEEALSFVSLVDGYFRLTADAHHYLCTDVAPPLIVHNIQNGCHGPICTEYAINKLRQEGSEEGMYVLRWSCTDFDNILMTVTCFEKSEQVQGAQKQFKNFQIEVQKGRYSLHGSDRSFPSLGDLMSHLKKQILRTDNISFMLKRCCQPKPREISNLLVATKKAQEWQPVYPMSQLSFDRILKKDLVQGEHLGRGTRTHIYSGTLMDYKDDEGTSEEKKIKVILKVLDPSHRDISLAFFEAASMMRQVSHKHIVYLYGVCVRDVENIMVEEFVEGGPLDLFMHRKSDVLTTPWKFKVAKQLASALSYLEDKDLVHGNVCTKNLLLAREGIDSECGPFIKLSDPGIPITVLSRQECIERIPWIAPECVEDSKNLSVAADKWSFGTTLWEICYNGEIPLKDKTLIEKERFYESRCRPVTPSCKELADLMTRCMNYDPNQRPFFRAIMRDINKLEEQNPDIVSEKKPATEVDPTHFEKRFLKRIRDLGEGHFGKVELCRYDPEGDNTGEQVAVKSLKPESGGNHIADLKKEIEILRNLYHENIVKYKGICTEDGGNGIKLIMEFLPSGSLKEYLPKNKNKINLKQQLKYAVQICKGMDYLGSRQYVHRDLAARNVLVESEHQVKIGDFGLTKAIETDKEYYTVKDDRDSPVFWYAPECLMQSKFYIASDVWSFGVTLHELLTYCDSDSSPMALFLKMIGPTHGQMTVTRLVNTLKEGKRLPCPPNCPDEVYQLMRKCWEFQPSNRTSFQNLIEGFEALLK
# Protocol details: Biochemical JAK1 kinase assay (LanthaScreen)
# Experimental parameters: read-out: JAK 1 (pKi) (converted)
The entries below come with measured Ki values attached.

>>> result("O=C(/C=C/CN1CCC1)N1CC(COc2cc(-c3ccc(O)cc3)cc3[nH]ncc23)C1")
"> 100 nM"
>>> result("CN(C)C/C=C/C(=O)N1CCC(Oc2cc(-c3ccc(O)c(F)c3)cc3[nH]ncc23)CC1")
"10 to 100 nM"
>>> result("C=CC(=O)N1CCC(Oc2cc(-c3ccc(O)cc3)cc3[nH]ncc23)CC1")
"10 to 100 nM"
>>> result("C=CC(=O)N1CC[C@H](S(=O)(=O)c2cc(-c3ccc(O)cc3)cc3[nH]ncc23)C1")
"> 100 nM"

Next up:
Reported Ki for JAK1 (Homo sapiens, UniProt P23458), given CN(C)C/C=C/C(=O)N1CC(C)(COc2cc(-c3ccc(O)c(Cl)c3)cc3[nH]ncc23)C1 ?
> 100 nM
